Recorded MIC, one value per entry.
Tested on: C. albicans
procedureDetails: Antifungal susceptibility testing (minimum inhibitory concentration), soyabean casein digest broth
Format: cell-based
experimentalSetup: Candida albicans; end points after 48 hours, visually / spectrophotometer; NI till x = no inhibition up to x; read-out: Activity against organisms In μg/ml, C. albicans (minimum inhibitory concentration)
Field format: number, assumed µg/mL, no unit text.

Below, each entry is followed by its recorded MIC result.
O=C1OC(COC(=O)c2ccsc2)C=C1c1ccc(Cl)c(Cl)c1 (stereo not drawn) [1EA] : 2
O=C(CCCl)OCC1C=C(c2cccc(Br)c2)C(=O)O1 (stereo not drawn) [1GC] : 2
C=CCC(=O)OCC1C=C(c2cccc(Br)c2)C(=O)O1 (stereo not drawn) [1CC] : 4
O=C1OC(COC(=O)c2ccccc2)C=C1c1ccc(Cl)c(Cl)c1 (stereo not drawn) [1AA] : 4
O=C1OC(COC(=O)c2cccs2)C=C1c1ccc(Cl)c(Cl)c1 (stereo not drawn) [1DA] : 2
CC(=O)OCC1C=C(c2cccc(Br)c2)C(=O)O1 (stereo not drawn) [1BC] : 2

Noted for O=C1OC(COC(=O)c2ccccc2)C=C1c1cccc(Cl)c1 (stereo not drawn) [1AB] : its MIC reads 2

Noted for O=C(CCCl)OCC1C=C(c2cccc(Cl)c2)C(=O)O1 (stereo not drawn) [1GB] : its MIC reads 2

Noted for O=C1OC(COC(=O)c2cccs2)C=C1c1cccc(Cl)c1 (stereo not drawn) [1DB] : its MIC reads 2

Noted for O=C(CCCl)OCC1C=C(c2ccc(Cl)c(Cl)c2)C(=O)O1 (stereo not drawn) [1GA] : its MIC reads 4

Noted for C=CCC(=O)OCC1C=C(c2ccc(Cl)c(Cl)c2)C(=O)O1 (stereo not drawn) [1CA] : its MIC reads 2

Noted for O=C1OC(COC(=O)c2cccs2)C=C1c1cccc(Br)c1 (stereo not drawn) [1DC] : its MIC reads 2

Noted for O=C1OC(COC(=O)c2ccsc2)C=C1c1cccc(Cl)c1 (stereo not drawn) [1EB] : its MIC reads 4
